target: recombinant PRL-2 (Homo sapiens); construct: 6xHis (N, cleaved yes); made in house; host or cells: E. coli One Shot BL21 Star; test: In vitro phosphatase assay (DiFMUP hydrolysis), PRL-2; assay type: biochemical; details: FDA-approved drug screen; compared to DMSO;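 further: PRL-2 activity read as DiFMUP hydrolysis after 20 min at room temperature with drug, enzyme first pre-reduced at 4 °C for 20 min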
Sequence (Q12974 whole entry): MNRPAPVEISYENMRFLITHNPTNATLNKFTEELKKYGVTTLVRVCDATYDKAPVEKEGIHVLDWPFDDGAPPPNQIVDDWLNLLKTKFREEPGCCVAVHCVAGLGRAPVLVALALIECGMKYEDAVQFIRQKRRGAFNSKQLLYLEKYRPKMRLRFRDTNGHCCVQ
Each item that follows carries a reported % Phosphatase Activity (compared to DMSO) PRL-2.

Known results for compounds:
{"compound": "CCCCCOC(=O)Nc1nc(=O)n([C@@H]2O[C@H](C)[C@@H](O)[C@H]2O)cc1F [Capecitabine]", "result": "123%"}
{"compound": "O=C(O)CSc1nnc(Br)n1-c1ccc(C2CC2)c2ccccc12 [Lesinurad]", "result": "102%"}
{"compound": "CC[C@H]1OC(=O)[C@H](C)[C@@H](O[C@H]2C[C@@](C)(OC)[C@@H](O)[C@H](C)O2)[C@H](C)[C@@H](O[C@@H]2O[C@H](C)C[C@H](N(C)C)[C@H]2O)[C@](C)(O)C[C@@H](C)/C(=N\\OCOCCOC)[C@H](C)[C@@H](O)[C@]1(C)O [Roxithromycin]", "result": "105%"}
{"compound": "C1N2CN3CN1CN(C2)C3 [Methenamine]", "result": "109%"}

// next entry
For Cc1ccc(=O)n(-c2ccccc2)c1 [Pirfenidone] the compound record lists % Phosphatase Activity (compared to DMSO) PRL-2 as 137%
